Source: ChEMBL document CHEMBL1961873

target: Ephrin type-B receptor 3 (Homo sapiens) (UniProt P54753); conditions: at 1 µM;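 also: values are mean percent inhibition of EPHB3 from the GSK PKIS screening panel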
Sequence (P54753 whole entry): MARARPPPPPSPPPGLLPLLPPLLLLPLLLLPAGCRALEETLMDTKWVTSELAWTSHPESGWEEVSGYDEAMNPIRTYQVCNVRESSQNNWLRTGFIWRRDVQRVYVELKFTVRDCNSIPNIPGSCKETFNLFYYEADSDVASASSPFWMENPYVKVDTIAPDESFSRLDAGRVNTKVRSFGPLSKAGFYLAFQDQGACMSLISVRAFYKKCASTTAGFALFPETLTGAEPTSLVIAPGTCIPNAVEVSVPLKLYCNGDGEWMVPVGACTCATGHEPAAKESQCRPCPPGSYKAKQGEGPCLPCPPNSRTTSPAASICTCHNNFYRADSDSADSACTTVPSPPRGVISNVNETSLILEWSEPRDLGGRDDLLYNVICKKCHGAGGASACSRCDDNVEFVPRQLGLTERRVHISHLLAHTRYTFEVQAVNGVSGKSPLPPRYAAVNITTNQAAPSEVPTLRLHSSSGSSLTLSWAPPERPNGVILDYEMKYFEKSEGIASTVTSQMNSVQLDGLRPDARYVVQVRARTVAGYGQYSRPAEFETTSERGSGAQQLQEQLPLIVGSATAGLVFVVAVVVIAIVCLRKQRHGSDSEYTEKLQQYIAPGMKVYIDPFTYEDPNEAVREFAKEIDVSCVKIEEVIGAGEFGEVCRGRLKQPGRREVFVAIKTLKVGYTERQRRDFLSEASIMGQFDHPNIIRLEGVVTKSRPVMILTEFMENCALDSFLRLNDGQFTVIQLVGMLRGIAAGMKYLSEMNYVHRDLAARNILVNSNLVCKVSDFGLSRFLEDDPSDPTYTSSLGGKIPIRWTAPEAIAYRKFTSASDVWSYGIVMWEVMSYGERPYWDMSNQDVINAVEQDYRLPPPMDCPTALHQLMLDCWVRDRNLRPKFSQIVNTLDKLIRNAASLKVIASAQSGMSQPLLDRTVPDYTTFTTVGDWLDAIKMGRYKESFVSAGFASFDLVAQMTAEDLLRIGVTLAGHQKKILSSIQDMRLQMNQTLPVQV
QUANTITY: inhibition (%)

[[record]]
entry_smiles = "CCOc1nccc2c1nc(-c1nonc1N)n2CC"
unit = "%"
observed_measurement = 2.82

[[record]]
entry_smiles = "Oc1cccc(-c2nc(-c3ccccc3)[nH]c2-c2ccncc2)c1"
unit = "%"
observed_measurement = 19.3

[[record]]
entry_smiles = "CCn1c(-c2nonc2N)nc2ccc(F)cc21"
unit = "%"
observed_measurement = 4.6

[[record]]
entry_smiles = "CCn1c(-c2nonc2N)nc2c(C#CC(C)(C)O)nc(OCCNC)cc21"
unit = "%"
observed_measurement = 4

[[record]]
entry_smiles = "Nc1nccc(-c2c(-c3ccc(F)cc3)nn3cc(C(F)(F)F)ccc23)n1"
unit = "%"
observed_measurement = 3.25

[[record]]
entry_smiles = "C[C@@H](Oc1cc(-n2cnc3ccc(OCC4CCN(C)CC4)cc32)sc1C(N)=O)c1ccccc1C(F)(F)F"
unit = "%"
observed_measurement = -1.08

[[record]]
entry_smiles = "COc1cc(Nc2nccc(-c3cnn4ncccc34)n2)cc(OC)c1"
unit = "%"
observed_measurement = -3.61

[[record]]
entry_smiles = "Cc1nc(-c2ccccc2)n2nc(NCCCN3CCOCC3)ncc12"
unit = "%"
observed_measurement = 3.76

[[record]]
entry_smiles = "Cc1ccc2c(-c3ccnc(Nc4cccc(C(F)(F)F)c4)n3)c(-c3ccccc3)nn2n1"
unit = "%"
observed_measurement = 9.16

[[record]]
entry_smiles = "Cc1cc(O)cc(C)c1/C=C/c1cncc(C(=O)N(C)C)c1"
unit = "%"
observed_measurement = 5.69

[[record]]
entry_smiles = "CN(C)C(=O)O[C@@H]1CN[C@@H](C#Cc2cc3ncnc(Nc4ccc(OCc5cccc(F)c5)c(Cl)c4)c3s2)C1"
unit = "%"
observed_measurement = -1.81

[[record]]
entry_smiles = "NS(=O)(=O)c1ccc(NC=C2C(=O)Nc3ccc4ncsc4c32)cc1"
unit = "%"
observed_measurement = 2.98

[[record]]
entry_smiles = "COC(=O)c1cncc(/C=C/c2c(C)cc(O)cc2C)c1"
unit = "%"
observed_measurement = 11.8

[[record]]
entry_smiles = "COC(=O)Nc1nc2cc(Oc3ccc(NC(=O)Nc4cccc(Br)c4)cc3)ccc2[nH]1"
unit = "%"
observed_measurement = 7.66


* * *

target: Serine/threonine-protein kinase DCLK2 (Homo sapiens) (UniProt Q8N568); conditions: at 0.1 µM;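 also: reported value is the mean percent inhibition of DCAMKL2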
Sequence (Q8N568 whole entry): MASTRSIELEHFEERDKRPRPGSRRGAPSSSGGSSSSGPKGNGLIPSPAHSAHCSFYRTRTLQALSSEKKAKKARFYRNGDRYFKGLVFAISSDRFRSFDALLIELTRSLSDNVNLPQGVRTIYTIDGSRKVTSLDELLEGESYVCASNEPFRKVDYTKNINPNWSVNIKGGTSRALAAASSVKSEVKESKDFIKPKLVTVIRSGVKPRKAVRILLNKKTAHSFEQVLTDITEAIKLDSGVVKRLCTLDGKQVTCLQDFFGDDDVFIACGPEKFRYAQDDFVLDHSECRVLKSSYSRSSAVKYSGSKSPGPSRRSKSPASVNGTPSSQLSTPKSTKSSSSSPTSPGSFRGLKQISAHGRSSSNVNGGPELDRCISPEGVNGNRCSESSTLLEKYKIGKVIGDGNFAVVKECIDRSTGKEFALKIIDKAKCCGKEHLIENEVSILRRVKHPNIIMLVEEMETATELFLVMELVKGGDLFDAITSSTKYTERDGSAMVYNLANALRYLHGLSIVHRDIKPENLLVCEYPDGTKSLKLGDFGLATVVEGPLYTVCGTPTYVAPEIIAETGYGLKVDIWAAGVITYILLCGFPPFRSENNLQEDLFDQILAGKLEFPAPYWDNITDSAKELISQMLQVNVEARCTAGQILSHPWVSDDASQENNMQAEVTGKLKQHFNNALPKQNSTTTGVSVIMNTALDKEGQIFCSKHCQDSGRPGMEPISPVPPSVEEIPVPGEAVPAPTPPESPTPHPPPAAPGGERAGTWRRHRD
inhibition listing for selected molecules.
QUANTITY: inhibition (%)

[[record]]
entry_smiles = "CN1CCN(C(=O)c2ccc(NC(=O)Nc3ccc(N(C)c4ccnc(Nc5ccc(CS(C)(=O)=O)cc5)n4)cc3)cc2)CC1"
experimental_system = "Serine/threonine-protein kinase DCLK2 (Homo sapiens) (UniProt Q8N568)"
unit = "%"
observed_measurement = -0.43

[[record]]
entry_smiles = "c1ccc(Cc2nc3ccc(Nc4ncnc5ccccc45)cc3[nH]2)cc1"
experimental_system = "Serine/threonine-protein kinase DCLK2 (Homo sapiens) (UniProt Q8N568)"
unit = "%"
observed_measurement = -0.21

[[record]]
entry_smiles = "ON=C1CCc2cc(-c3nc(C4CCNCC4)[nH]c3-c3ccncc3)ccc21"
experimental_system = "Serine/threonine-protein kinase DCLK2 (Homo sapiens) (UniProt Q8N568)"
unit = "%"
observed_measurement = 2.56

[[record]]
entry_smiles = "CCn1c(-c2nonc2N)nc2c(C#CC(C)(C)O)nc(OCCNC)cc21"
experimental_system = "Serine/threonine-protein kinase DCLK2 (Homo sapiens) (UniProt Q8N568)"
unit = "%"
observed_measurement = -0.8

[[record]]
entry_smiles = "CS(=O)(=O)CCNCc1nc(-c2ccc3ncnc(Nc4ccc(OCc5cccc(C(F)(F)F)c5)cc4)c3c2)cs1"
experimental_system = "Serine/threonine-protein kinase DCLK2 (Homo sapiens) (UniProt Q8N568)"
unit = "%"
observed_measurement = -1.01

[[record]]
entry_smiles = "CS(=O)(=O)Nc1cccc(-c2ccc3c(NC(=O)C4CC4)n[nH]c3c2)c1"
experimental_system = "Serine/threonine-protein kinase DCLK2 (Homo sapiens) (UniProt Q8N568)"
unit = "%"
observed_measurement = 2.43

[[record]]
entry_smiles = "Cc1ccc(Nc2ccnc(Nc3cccc(C(N)=O)c3)n2)cc1O"
experimental_system = "Serine/threonine-protein kinase DCLK2 (Homo sapiens) (UniProt Q8N568)"
unit = "%"
observed_measurement = -4.04

[[record]]
entry_smiles = "Cc1cc(-c2ccccn2)cc(C)c1/C=C/c1cncc(-c2nn[nH]n2)c1"
experimental_system = "Serine/threonine-protein kinase DCLK2 (Homo sapiens) (UniProt Q8N568)"
unit = "%"
observed_measurement = -0.19

[[record]]
entry_smiles = "Cc1cc(O)cc(C)c1/C=C/c1cncc(C(=O)N(C)C)c1"
experimental_system = "Serine/threonine-protein kinase DCLK2 (Homo sapiens) (UniProt Q8N568)"
unit = "%"
observed_measurement = 3.47

[[record]]
entry_smiles = "COc1cccc(-n2nc(C)c3c(N/N=C(\\C)c4ccncc4)ncnc32)c1"
experimental_system = "Serine/threonine-protein kinase DCLK2 (Homo sapiens) (UniProt Q8N568)"
unit = "%"
observed_measurement = -1

